- method notes: Solubility
- Format: physicochemical
- experimental parameters: aqueous buffer; in 0.9 M nitric acid (HNO3)
attribute measured: solubility

Query: Entry O=c1[nH]c(COCCO)c(COCCO)c2cc3ccc4cc5c(COCCO)c(COCCO)[nH]c(=O)c5nc4c3nc12 : reported solubility = ?
Reply: > 200 mM
